// provenance: patent US20080269251A1

- tgt: human adrenergic-α2C receptor (Homo sapiens, UniProt P18825)
- Construct: expressed in transfected cells; host or cells: CHO cells, stably transfected; membrane preparation
- Sequence (P18825 whole entry): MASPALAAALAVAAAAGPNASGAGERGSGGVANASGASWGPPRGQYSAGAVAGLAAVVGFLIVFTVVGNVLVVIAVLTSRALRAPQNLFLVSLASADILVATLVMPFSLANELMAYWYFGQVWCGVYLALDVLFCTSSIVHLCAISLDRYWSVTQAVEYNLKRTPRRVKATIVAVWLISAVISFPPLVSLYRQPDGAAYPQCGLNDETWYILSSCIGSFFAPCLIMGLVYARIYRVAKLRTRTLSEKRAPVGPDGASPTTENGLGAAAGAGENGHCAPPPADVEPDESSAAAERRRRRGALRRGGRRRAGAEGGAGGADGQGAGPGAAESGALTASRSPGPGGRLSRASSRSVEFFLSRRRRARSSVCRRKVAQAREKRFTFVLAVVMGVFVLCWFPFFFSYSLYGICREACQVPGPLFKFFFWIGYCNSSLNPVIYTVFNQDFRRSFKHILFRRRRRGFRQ
- assay protocol: Radioligand binding experiment for hα2C-adrenoceptor ([3H]raulwolscine)
- conditions used: [3H]raulwolscine 1 nM, 60 minutes at 25° C.; read-out: h-α2C pIC50 (converted)
Note to self: class labels come from recorded IC50, ranges listed here: A: < 20 nM; B: ≥ 20 nM and < 40 nM; C: ≥ 40 nM

Consider the worked cases shown below.
COCCNC(=O)NCc1ccc(-n2ccnc(NC3CCN(Cc4ccc5ccccc5c4)CC3)c2=O)cc1 ... B
O=C(Cc1ccccc1)NCc1ccc(-n2ccnc(NC3CCN(Cc4ccc5ccccc5c4)CC3)c2=O)cc1 ... B
O=c1c(NC2CCN(Cc3ccc4ccccc4c3)CC2)nccn1-c1ccc(CNCCF)cc1 ... A
O=c1[nH]c(-c2cccc(CNCC3CCCO3)c2)c(Cl)nc1NC1CCN(Cc2ccc3ccccc3c2)CC1 (centres unmarked) ... C
O=c1c(NC2CCN(Cc3ccc4ccccc4c3)CC2)nccn1-c1ccc2[nH]ccc2c1 ... B

Returns: class label. Input: O=c1c(NC2CCN(Cc3ccc4ccccc4c3)CC2)nccn1-c1ccc(CNCC2CCCO2)cc1 (centres unmarked) [1-79b] A

Returns: class label. Input: O=c1c(NC2CCN(Cc3ccc4ccccc4c3)CC2)nccn1-c1ccc2c(c1)CN(CCO)CC2 A

====

- tgt: human adrenergic-α2A receptor (Homo sapiens)
- Construct: expressed in transfected cells; host or cells: CHO cells, stably transfected; membrane preparation
- Sequence (P08913 1-465): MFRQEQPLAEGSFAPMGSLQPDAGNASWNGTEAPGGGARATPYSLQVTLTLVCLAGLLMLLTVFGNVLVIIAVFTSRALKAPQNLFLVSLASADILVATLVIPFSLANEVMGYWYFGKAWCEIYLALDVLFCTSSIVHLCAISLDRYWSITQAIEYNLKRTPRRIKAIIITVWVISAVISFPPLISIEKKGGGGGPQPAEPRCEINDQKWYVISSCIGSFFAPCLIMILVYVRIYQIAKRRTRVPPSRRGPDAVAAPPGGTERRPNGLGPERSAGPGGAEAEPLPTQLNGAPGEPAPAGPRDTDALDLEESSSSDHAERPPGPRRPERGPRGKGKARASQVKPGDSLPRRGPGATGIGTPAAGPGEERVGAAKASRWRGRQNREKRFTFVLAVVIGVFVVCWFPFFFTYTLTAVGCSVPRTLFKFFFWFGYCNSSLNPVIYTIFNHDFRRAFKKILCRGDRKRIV
- assay protocol: Radioligand binding experiment for hα2A-adrenergic receptor ([3H]raulwolscine)
- conditions used: [3H]raulwolscine 1 nM, 60 minutes at 25° C.; read-out: h-α2A pIC50 (converted)
For each entry below, report its IC50 value.
Give bare numbers, in nM.

Example entries and their recorded answers appear below.
CCCC(=O)NCc1ccc(-n2ccnc(NC3CCN(Cc4ccc5ccccc5c4)CC3)c2=O)cc1OC [1-25] ... 631
CCN(CC)CCC(=O)NCc1ccc(-n2ccnc(NC3CCN(Cc4ccc5ccccc5c4)CC3)c2=O)cc1 [1-58] ... 79.4
CN(C(=O)Cn1ccnc(NC2CCN(Cc3ccc4ccccc4c3)CC2)c1=O)C1CCCCC1 [1-16] ... 316

# ---- query compound ----
Given the entry CCCC(=O)NCc1ccc(-n2ccnc(NC3CCN(Cc4ccc5ccccc5c4)CC3)c2=O)cc1F [1-26] , report its measured IC50. 398

====

- tgt: human adrenergic-α2A receptor (Homo sapiens)
- Construct: expressed in transfected cells; host or cells: CHO cells, stably transfected; membrane preparation
- assay protocol: Radioligand binding experiment for hα2A-adrenergic receptor ([3H]raulwolscine)
- conditions used: [3H]raulwolscine 1 nM, 60 minutes at 25° C.; read-out: h-α2A pIC50 (converted)
observable: IC50 (nM)
Answers are plain numbers, in nM.

Example entries and their recorded answers appear below.
O=Cc1ccc(-n2ccnc(NC3CCN(Cc4ccc5ccccc5c4)CC3)c2=O)cc1F [5-11] ... 398
COc1ccc(Cn2c(-c3ccc(CN4CCC(O)CC4)cc3)c(Cl)nc(NC3CCN(Cc4ccc5ccccc5c4)CC3)c2=O)cc1 [8-11] ... 126
CC(=O)NCCN(C)Cc1ccc(-n2ccnc(NC3CCN(Cc4ccc5ccccc5c4)CC3)c2=O)cc1 [1-60] ... 200
O=C(Cc1ccccc1)NCc1ccc(-n2ccnc(NC3CCN(Cc4ccc5ccccc5c4)CC3)c2=O)cc1 [1-42] ... 501
O=C(Cn1ccnc(NC2CCN(Cc3ccc4ccccc4c3)CC2)c1=O)N1CCC(C(F)(F)F)CC1 [2-16] ... 501

Please state IC50 for every molecule in the list that follows.
1. CN(Cc1ccccc1)C(=O)Cn1ccnc(NC2CCN(Cc3ccc4ccccc4c3)CC2)c1=O [1-69]
2. O=c1c(NC2CCN(Cc3ccc4ccccc4c3)CC2)nccn1CCCOc1ccccc1 [3-10]
3. O=c1c(NC2CCN(Cc3ccc4ccccc4c3)CC2)nccn1CCO [3-01]
4. CN(CC(=O)N(C)C)Cc1ccc(-n2ccnc(NC3CCN(Cc4ccc5ccccc5c4)CC3)c2=O)cc1 [1-57]
5. O=C1c2ccccc2C(=O)N1CCCn1ccnc(NC2CCN(Cc3ccc4ncccc4c3)CC2)c1=O [9-07]
6. CCOC(=O)N1CCC(NC(=O)NCc2ccc(-n3ccnc(NC4CCN(Cc5ccc6ccccc6c5)CC4)c3=O)cc2)CC1 [1-55]
7. O=c1c(NC2CCN(Cc3ccc4ccccc4c3)CC2)nccn1-c1ccsc1 [6-05]

1: 200; 2: 126; 3: 251; 4: 251; 5: 1580; 6: 631; 7: 126

Please state IC50 for every molecule in the list that follows.
1. COCCC(=O)NCc1ccc(-n2ccnc(NC3CCN(Cc4ccc5ccccc5c4)CC3)c2=O)cc1 [1-30]
2. O=c1c(NC2CCN(Cc3ccc4ccccc4c3)CC2)nccn1-c1ccncc1 [6-07]
3. O=c1c(NC2CCN(Cc3ccc4ccccc4c3)CC2)nccn1CCCOCc1ccccc1 [3-11]
4. CCCN(C)C(=O)Cn1ccnc(NC2CCN(Cc3ccc4ccccc4c3)CC2)c1=O [1-13]
5. O=C(Cn1ccnc(NC2CCN(Cc3ccc4ccccc4c3)CC2)c1=O)NCCN1CCOCC1 [1-94]
6. O=c1c(NC2CCN(Cc3ccc4ccccc4c3)CC2)nccn1-c1ccc(CNCCF)cc1 [1-07]
7. Cc1cc(CNC(=O)c2ccc(-n3ccnc(NC4CCN(Cc5ccc6ccccc6c5)CC4)c3=O)cc2)no1 [1-86]
8. CC(C)(C)OC(=O)NCc1ccc(-n2ccnc(NC3CCN(Cc4ccc5ccccc5c4)CC3)c2=O)cc1 [1-33]

316
200
251
501
631
126
251
501

Please state IC50 for every molecule in the list that follows.
1. O=C(CNCCCn1ccnc(NC2CCN(Cc3ccc4ccccc4c3)CC2)c1=O)c1coc2ccccc12 [1-103]
2. NCc1ccc(Cn2ccnc(N3CCN(Cc4cccc5ccccc45)CC3)c2=O)cc1 [9-23]
3. CN(C)CCCn1ccnc(NC2CCN(Cc3ccc4ccccc4c3)CC2)c1=O [1-12]
4. O=c1c(NC2CCN(Cc3ccc4ccccc4c3)CC2)nccn1-c1ccc(CNCC2CCCO2)c(F)c1 (stereo not shown) [1-80]
5. NCCCn1ccnc(NC2CCN(Cc3ccc4ccccc4c3)CC2)c1=O [1-03]

631
398
200
251
200

Please state IC50 for every molecule in the list that follows.
1. O=c1c(NC2CCN(Cc3ccc4ccccc4c3)CC2)nccn1-c1ccc(COCC2CCCO2)cc1 (stereo not shown) [3-14]
2. CCCC(=O)NCc1ccc(-n2ccnc(NC3CCN(Cc4ccc5ccccc5c4)CC3)c2=O)cc1 [1-24]
3. O=c1c(NC2CCN(Cc3ccc4ccccc4c3)CC2)nccn1-c1ccc2c(c1)CN(CCO)CC2 [6-12]
4. O=c1c(NC2CCN(Cc3ccc4ccccc4c3)CC2)nccn1CCCNCCOc1ccccc1 [1-77]
5. COC(=O)CCn1ccnc(NC2CCN(Cc3ccc4ccccc4c3)CC2)c1=O [3-04]
6. Cc1ccc(CN(Cc2ccc(-n3ccnc(NC4CCN(Cc5ccc6ccccc6c5)CC4)c3=O)cc2)Cc2ccc(C)o2)o1 [1-85]
7. CCOC(=O)CCCCn1ccnc(NC2CCN(Cc3cnc4ccccc4c3)CC2)c1=O [9-21]
8. CCCCNc1cccc(-n2ccnc(NC3CCN(Cc4ccc5ccccc5c4)CC3)c2=O)c1 [1-05]

[251, 316, 31.6, 398, 1000, 794, 1260, 39.8]

====

For each entry below, report its IC50 value.
- tgt: 5HT-transporter (Homo sapiens, UniProt P31645)
- Construct: Human platelet membranes (Oceanix Biosciences Corporation, Hanover, Md., USA) were thawed; tissue Oceanix Biosciences Corporation, Hanover, Md., USA; host or cells: human platelet membranes
- Sequence (P31645 whole entry): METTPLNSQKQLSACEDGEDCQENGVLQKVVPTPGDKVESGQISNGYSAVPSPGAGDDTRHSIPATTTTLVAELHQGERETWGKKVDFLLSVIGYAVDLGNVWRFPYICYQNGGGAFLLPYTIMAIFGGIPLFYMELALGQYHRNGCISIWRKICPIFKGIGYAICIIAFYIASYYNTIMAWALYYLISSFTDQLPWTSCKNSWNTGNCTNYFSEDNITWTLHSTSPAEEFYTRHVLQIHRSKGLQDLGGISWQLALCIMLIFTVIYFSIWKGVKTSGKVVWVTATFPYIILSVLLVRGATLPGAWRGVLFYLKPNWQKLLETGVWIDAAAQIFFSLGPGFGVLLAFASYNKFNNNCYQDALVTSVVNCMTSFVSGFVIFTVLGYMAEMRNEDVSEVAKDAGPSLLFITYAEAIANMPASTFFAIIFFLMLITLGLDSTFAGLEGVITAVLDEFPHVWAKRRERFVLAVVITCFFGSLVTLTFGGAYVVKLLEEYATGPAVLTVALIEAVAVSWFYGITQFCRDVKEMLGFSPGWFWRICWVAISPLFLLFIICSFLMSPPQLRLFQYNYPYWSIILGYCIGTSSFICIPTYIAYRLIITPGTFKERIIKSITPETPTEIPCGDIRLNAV
- assay protocol: Binding experiment for the 5HT-transporter ([3H]paroxetine, human platelet membranes)
- conditions used: [3H]paroxetine 0.5 nM, 60 min at 25° C., read-out: h-5HTT pIC50 (converted)
Answers are plain numbers, in nM.

Example entries and their recorded answers appear below.
O=C(CCN(c1nccn(CCC(=O)c2ccccc2)c1=O)C1CCN(Cc2cnc3ccccc3c2)CC1)c1ccccc1 [9-20] ... 398
CN1CCN(Cc2cccc(-c3[nH]c(=O)c(NC4CCN(Cc5ccc6ccccc6c5)CC4)nc3Cl)c2)CC1 [7-10] ... 200
O=c1c(NC2CCN(Cc3ccc4ccccc4c3)CC2)nccn1CCO [3-01] ... 100

# ---- query molecule ----
Given the entry O=C1c2ccccc2C(=O)N1CC#CCn1ccnc(NC2CCN(Cc3ccc4ccccc4n3)CC2)c1=O [9-18] , report its measured IC50. 1000
